TEST SYSTEM: T1, FITC labeled BCMA (acrobiosystem, Cat. No. BCA-HF254) (UniProt Q02223 1-54, FITC labeled (site not stated))
T1 construct: Soluble labeled protein used to stain CAR-T cells; also called BCMA antigen protein; BCMA protein
T1 sequence (looked up): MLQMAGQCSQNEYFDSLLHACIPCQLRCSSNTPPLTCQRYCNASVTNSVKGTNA
ASSAY SUMMARY: flow cytometry, CAR-T cells stained with FITC labeled BCMA
READOUT: binding result

chimeric antigen receptor comprising humanized anti-BCMA single domain antibody BH60_GKV1, on CAR-T cells (other) QVQLVESGGGLVQPGGSLRLSCVASGGIFTINDMAWFRQAPGKQRELVAHISRSGSTYYRDSVKGRFTISRDNAKNSLYLQMNSLRAEDTAVYYCNSIDRPLSYGQGTLVTVSTTTPAPRPPTPAPTIASQPLSLRPEACRPAAGGAVHTRGLDFACDIYIWAPLAGTCGVLLLSLVITLYCKRGRKKLLYIFKQPFMRPVQTTQEEDGCSCRFPEEEEGGCELRVKFSRSADAPAYQQGQNQLYNELNLGRREEYDVLDKRRGRDPEMGGKPRRKNPQEGLYNELQKDKMAEAYSEIGMKGERRRGKGHDGLYQGLSTATKDTYDALHMQALPPR : binds
chimeric antigen receptor comprising humanized anti-BCMA single domain antibody BH86_V4, on CAR-T cells (other) QVQLVESGGGLVQAGESLRLSCAASGRAISSIVMAWWRQTPGAEREFVASINRWGGTPYYSDSVKGRFTISRDNSKNTLYLQMNSLRAEDTAVYYCAAASTLDSGYDYWGHGTLVTVSTTTPAPRPPTPAPTIASQPLSLRPEACRPAAGGAVHTRGLDFACDIYIWAPLAGTCGVLLLSLVITLYCKRGRKKLLYIFKQPFMRPVQTTQEEDGCSCRFPEEEEGGCELRVKFSRSADAPAYQQGQNQLYNELNLGRREEYDVLDKRRGRDPEMGGKPRRKNPQEGLYNELQKDKMAEAYSEIGMKGERRRGKGHDGLYQGLSTATKDTYDALHMQALPPR : binds
